B1: VPS39 (parent)
chain: TTLLKCYLHTNVALVAPLLRLENN

- Variants of: B1
- Protocol Summary: protein stability index of a GFP-peptide fusion (GPS, HEK-293T) (PSI 1-6); higher = more stable;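 note: lentivirally expressed fusions sorted by FACS into six bins by GFP to DsRed ratio, PSI derived from sequencing read proportions per bin multiplied by bin number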
- Measurement Setup: c terminus: a fixed tail appended
Using protein stability index as the sorting value, the categories are range A = under 2, range B = from 2 up to 3, range C = 3 and over

Completed entries (count: 2):
Sequence Variant: L21M
Class Name: range C
//
Sequence Variant: R20Y
Class Name: range C

Dear colleague, I would appreciate it if you could identify the bin for `C6K` and reply at your convenience.
range B

Dear colleague, I would appreciate it if you could identify the bin for `T2A` and reply at your convenience.
range A
